# TARGET_SYSTEM: met (HGF receptor) in human gastric cancer cells MKN45 (Homo sapiens)
# Construct: endogenous in cells; host or cells: MKN45 human gastric cancer cells
# TEST_PROTOCOL: Inhibitory activity against met-autophosphorylation using ELISA method (2), MKN45 cells, HGF-independent
# Assay type: cell-based
READOUT_LABEL: pIC50
Friendly reminder that pIC50 comes from taking -log10 of the concentration in mol/L.

**Query** For the compound shown here, `COc1cc2c(Oc3ccc(NC(=S)NC(=O)Cc4ccccc4F)cc3Cl)ccnc2cc1OCCCN1CCOCC1` , give the reported pIC50.
**Result** 7.05

**Query** Same read-out for `COc1cc2nccc(Oc3ccc(NC(=S)NC(=O)Cc4cccc(Cl)c4)cc3F)c2cc1OC` ?
**Result** 6.65

**Query** Same read-out for `COc1cc2nccc(Oc3ccc(NC(=O)NC(=O)Cc4ccccc4)cc3Cl)c2cc1OC` ?
**Result** 6.83

**Query** Same read-out for `COc1cc2nccc(Oc3ccc(NC(=O)NC(=O)Cc4ccc(F)cc4F)cc3F)c2cc1OC` ?
**Result** 7.33

**Query** Same read-out for `COc1cc2c(Oc3ccc(NC(=O)NC(=O)Cc4ccc(F)cc4)c(F)c3)ccnc2cc1OCCCCN1CCCCC1` ?
**Result** 6.68

**Query** Same read-out for `COc1cc2c(Oc3ccc(NC(=O)NC(=O)Cc4ccccc4)cc3F)ccnc2cc1OCCCN1CCN(C)CC1` ?
**Result** 7.43

**Query** Same read-out for `COCCC(=O)NC(=S)Nc1ccc(Oc2ccnc3cc(OC)c(OC)cc23)c(Cl)c1` ?
**Result** 5.59

**Query** Same read-out for `COc1cc2nccc(Oc3ccc(NC(=O)NC(=O)Cc4ccsc4)c(F)c3)c2cc1OC` ?
**Result** 6.98

**Query** Same read-out for `COc1cc2c(Oc3ccc(NC(=S)NC(=O)Cc4ccccc4)cc3F)ccnc2cc1OCCN1CCCN(C)CC1` ?
**Result** 7.62

**Query** Same read-out for `COc1cc2nccc(Oc3ccc(NC(=O)NC(=O)Cn4ccnn4)cc3Cl)c2cc1OC` ?
**Result** 5.70

**Query** Same read-out for `COc1cc2nccc(Oc3ccc(NC(=O)NC(=O)Cc4ccc(C)cc4)c(F)c3)c2cc1OC` ?
**Result** 6.58

**Query** Same read-out for `COc1cc2nccc(Oc3ccc(NC(=O)CC(=O)Nc4ccccc4)cc3)c2cc1OC` ?
**Result** 7.51

**Query** Same read-out for `COc1cc2nccc(Oc3ccc(NC(=S)NC(=O)Cc4cccc(C)c4)cc3Cl)c2cc1OC` ?
**Result** 7.18

**Query** Same read-out for `COc1cc2c(Oc3ccc(NC(=O)NC(=O)Cc4ccccc4F)cc3F)ccnc2cc1OCCCn1ccnc1` ?
**Result** 7.47

**Query** Same read-out for `COc1cc2nccc(Oc3ccc(NC(=O)NC(=O)Nc4cccc5cccnc45)cc3)c2cc1OC` ?
**Result** 5.65

**Query** Same read-out for COc1cc2c(Oc3ccc(NC(=S)NC(=O)Cc4ccc(Cl)cc4)cc3F)ccnc2cc1OCC(O)CN1CCCCC1 (stereo not drawn) ?
**Result** 6.10

**Query** Same read-out for `COc1cc2nccc(Oc3ccc(NC(=S)NC(=O)Cc4cccc(F)c4)cc3)c2cc1OC` ?
**Result** 6.62

**Query** Same read-out for `COc1cc2nccc(Oc3c(Cl)cc(NC(=S)NC(=O)Cc4ccccc4)cc3Cl)c2cc1OC` ?
**Result** 7.82

**Query** Same read-out for COc1cc2nccc(Oc3ccc(NC(=O)C(C)C(=O)Nc4ccccc4)cc3)c2cc1OC (stereo not drawn) ?
**Result** 6.55

**Query** Same read-out for `COc1cc2nccc(Oc3ccc(NC(=O)NC(=O)Nc4ccc(F)c(F)c4)cc3)c2cc1OC` ?
**Result** 6.46

**Query** Same read-out for `COc1cc(Oc2ccnc3cc(OC)c(OC)cc23)ccc1NC(=O)NC(=O)Cc1ccc(F)cc1` ?
**Result** 7.54

**Query** Same read-out for `COc1cc2nccc(Oc3ccc(NC(=O)NC(=O)CSC4CCCC4)cc3)c2cc1OC` ?
**Result** 6.53

**Query** Same read-out for `COc1cc2nccc(Oc3ccc(NC(=S)NC(=O)CC4CCCCC4)cc3)c2cc1OC` ?
**Result** 6.95

**Query** Same read-out for `COc1cc2nccc(Oc3ccc(NC(=S)NC(=O)[C@H](C)c4ccccc4)cc3)c2cc1OC` ?
**Result** 6.33

###

Assignment: determine reported pIC50 for the given compounds.
# TARGET_SYSTEM: met (HGF receptor) in human gastric cancer cells MKN45 (Homo sapiens, UniProt P08581)
# Construct: endogenous in cells
# Sequence (P08581 25-1390): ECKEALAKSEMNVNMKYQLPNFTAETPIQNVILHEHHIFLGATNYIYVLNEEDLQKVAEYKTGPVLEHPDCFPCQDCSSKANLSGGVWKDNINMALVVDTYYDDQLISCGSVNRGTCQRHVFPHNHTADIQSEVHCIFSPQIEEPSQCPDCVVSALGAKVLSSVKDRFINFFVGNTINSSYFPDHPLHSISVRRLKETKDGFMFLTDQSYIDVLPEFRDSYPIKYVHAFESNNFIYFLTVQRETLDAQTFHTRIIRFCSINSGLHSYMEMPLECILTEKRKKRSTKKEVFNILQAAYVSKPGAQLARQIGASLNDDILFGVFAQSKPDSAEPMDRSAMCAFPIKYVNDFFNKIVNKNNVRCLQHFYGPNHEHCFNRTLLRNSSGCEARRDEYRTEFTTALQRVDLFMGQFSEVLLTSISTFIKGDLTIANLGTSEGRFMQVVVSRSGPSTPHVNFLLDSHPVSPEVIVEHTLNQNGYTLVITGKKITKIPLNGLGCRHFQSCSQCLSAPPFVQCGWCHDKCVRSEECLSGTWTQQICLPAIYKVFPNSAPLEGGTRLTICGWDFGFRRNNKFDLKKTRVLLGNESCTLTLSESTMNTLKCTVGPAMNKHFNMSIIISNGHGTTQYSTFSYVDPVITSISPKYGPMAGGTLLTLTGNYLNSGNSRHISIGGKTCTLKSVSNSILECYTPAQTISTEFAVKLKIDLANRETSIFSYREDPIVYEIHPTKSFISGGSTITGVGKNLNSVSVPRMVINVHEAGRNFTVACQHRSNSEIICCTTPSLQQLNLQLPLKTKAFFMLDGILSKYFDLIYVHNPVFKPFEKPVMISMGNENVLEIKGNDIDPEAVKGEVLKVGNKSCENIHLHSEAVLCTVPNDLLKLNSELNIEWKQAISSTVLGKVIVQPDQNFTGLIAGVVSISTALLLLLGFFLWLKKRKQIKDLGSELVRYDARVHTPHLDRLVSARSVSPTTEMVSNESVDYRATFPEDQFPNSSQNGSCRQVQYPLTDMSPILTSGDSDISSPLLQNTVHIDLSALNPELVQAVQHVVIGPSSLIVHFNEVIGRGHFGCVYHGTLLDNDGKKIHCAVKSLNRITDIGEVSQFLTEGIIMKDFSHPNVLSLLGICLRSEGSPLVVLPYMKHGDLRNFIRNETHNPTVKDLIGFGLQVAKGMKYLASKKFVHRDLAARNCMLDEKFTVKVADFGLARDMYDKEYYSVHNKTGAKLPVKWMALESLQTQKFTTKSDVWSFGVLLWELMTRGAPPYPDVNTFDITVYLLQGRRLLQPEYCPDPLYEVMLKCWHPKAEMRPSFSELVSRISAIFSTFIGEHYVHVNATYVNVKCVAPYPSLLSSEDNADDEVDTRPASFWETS
# TEST_PROTOCOL: Inhibitory activity against met-autophosphorylation using ELISA method (2), MKN45 cells, HGF-independent
Friendly reminder that pIC50 comes from taking -log10 of the concentration in mol/L.

**Query** For the compound shown here, `CCN(CC)CCOc1cc2nccc(Oc3ccc(NC(=S)NC(=O)Cc4ccccc4)cc3F)c2cc1OC` , give the reported pIC50.
**Result** 7.47

**Query** Same read-out for `COc1cc2nccc(Oc3ccc(NC(=S)NC(=O)c4cccc(C(F)(F)F)c4)cc3)c2cc1OC` ?
**Result** 6.44

**Query** Same read-out for `COc1cc2nccc(Oc3ccc(NC(=S)NC(=O)Cc4ccccc4C)c(F)c3)c2cc1OC` ?
**Result** 6.56

**Query** Same read-out for `COc1cc2nccc(Oc3ccc(NC(=S)NC(=O)Cc4cccc(F)c4)cc3F)c2cc1OC` ?
**Result** 7.47

**Query** Same read-out for `COc1cc2nccc(Oc3ccc(NC(=O)NC(=O)Cc4cccs4)cc3F)c2cc1OC` ?
**Result** 7.47

**Query** Same read-out for `COc1cc2nccc(Oc3cc(C)c(NC(=O)CC(=O)Nc4ccc(F)cc4F)cc3C)c2cc1OC` ?
**Result** 6.50

**Query** Same read-out for `COc1cc2nccc(Oc3ccc(NC(=S)NC(=O)Cc4ccccc4F)c(F)c3)c2cc1OC` ?
**Result** 7.52

**Query** Same read-out for `COc1cc2c(Oc3ccc(NC(=O)NC(=O)Cc4ccc(F)cc4)cc3F)ccnc2cc1OCCCN1CCOCC1` ?
**Result** 6.64

**Query** Same read-out for `COc1cc2nccc(Oc3ccc(NC(=O)CC(=O)NCCC(C)(C)C)cc3)c2cc1OC` ?
**Result** 6.66

**Query** Same read-out for `COc1cc2nccc(Oc3ccc(NC(=S)NC(=O)Cc4c(F)ccc(F)c4F)cc3)c2cc1OC` ?
**Result** 6.49

**Query** Same read-out for `COc1cc2nccc(Oc3ccc(NC(=S)NC(=O)CCC4CCCC4)cc3)c2cc1OC` ?
**Result** 6.61

**Query** Same read-out for `COc1cc2c(Oc3ccc(NC(=S)NC(=O)Cc4ccccc4)cc3F)ccnc2cc1OCCCn1ccnc1` ?
**Result** 7.24

**Query** Same read-out for `COc1cc2c(Oc3ccc(NC(=S)NC(=O)Cc4ccccc4)cc3F)ccnc2cc1OCCCN1CCOCC1` ?
**Result** 7.64

**Query** Same read-out for `COc1cc2nccc(Oc3ccc(NC(=S)NC(=O)Cc4ccc(F)cc4)cc3F)c2cc1OC` ?
**Result** 7.74

**Query** Same read-out for COc1cc2nccc(Oc3ccc(NC(=S)NC(=O)C4C[C@@H]4c4ccccc4)cc3)c2cc1OC (stereo in doubt) ?
**Result** 5.89

Data origin: patent US8324245B2
